Data credit: patent US20240408169A1

- assay_system: CyclinE1/CDK2 (Homo sapiens, UniProt P24864)
- Construct: purchased Eurofins, discovery 14-475
- assay: Fluorescence Polarization (FP) competitive binding assay, Cyclin E1/Cdk2;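 further: readings taken after two-hour equilibration at room temperature in HEPES buffer with NaCl, DTT, NP-40 and BSA, IC50 fitted from eight-concentration serial dilution series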
- run_parameters: 10 nM Cyclin E1/Cdk2, 2 nM FAM probe; average of 2-3 independent experiments; read-out: Cyclin E FP IC50
pIC50: −log10 of the molar value. *1 amine or outer side, *2 acyl side, *3 side chain or, on linkers, in order; H or OH if unused. Where a SMILES comes first, the peptide text is derived from it. Bridges are numbered along the chain shown (N, C = ends). [ ]: non-standard residue; d: D form. The star is where a group is joined. X10 = CC(C)C(=O)N1[C@H]2COC[C@@H]1C=C(c1ccc(Cl)cc1C[C@@H](C(=O)[*:2])N(C)[*:1])C2; X48 = CN(C)C[C@H]1CN(c2ccc(-c3ccc(Cl)cc3C[C@@H](C(=O)[*:2])N(C)[*:1])cc2)CCO1; X40 = CN1CCN(Cc2ccc(-c3ccc(Cl)cc3C[C@@H](C(=O)[*:2])N(C)[*:1])cc2)CC1; NMePhe(5-Cl,2-O(2-Pym)) = CN[C@@H](Cc1cc(Cl)ccc1Oc1ncccn1)C(=O)O; X90 = CC(=O)N1CC=C(c2ccc(Cl)cc2C[C@@H](C(=O)[*:2])N(C)[*:1])CC1; X26 = CN([C@@H](Cc1cc(F)ccc1-c1cnn(C2CC2)c1)C(=O)[*:2])[*:1]; NMehhhLys(Me) = CN([C@@H](CCCCCCCN(C)[*:3])C(=O)[*:2])[*:1]; NMe(hhhLys) = CN([C@@H](CCCCCCCN[*:3])C(=O)[*:2])[*:1]; cBuCO(3,3-F2-1-CF3) = O=C(C1(C(F)(F)F)CC(F)(F)C1)*; Pro(trans-4-F) = O=C(O)[C@@H]1C[C@@H](F)CN1; X27 = O=C([C@]1(C(F)(F)F)CCCCO1)*; Gly(cPr) = N[C@H](C(=O)O)C1CC1
attribute_measured: pIC50

compound	attribute_measured	numeric_result
CC(C)C[C@@H]1NC(=O)[C@@H](N(C)C(=O)[C@@H](NC(=O)[C@@H]2C[C@@H](F)CN2C(=O)C2(C(F)(F)F)CC(F)(F)C2)C2CC2)CCCCCCCN(C)C(=O)[C@H](Cc2cc(Cl)ccc2-c2ccc(CN3CCN(C)CC3)cc2)N(C)C1=O [Example 360] ({cBuCO(3,3-F2-1-CF3)}-[Pro(trans-4-F)][Gly(cPr)][NMehhhLys(Me)]L[X40]; lactam 3-C)	pIC50	6.07
CC(C)C[C@@H]1NC(=O)[C@@H](N(C)C(=O)[C@@H](NC(=O)[C@@H]2C[C@@H](F)CN2C(=O)C2(C(F)(F)F)CC(F)(F)C2)C2CC2)CCCCCCCN(C)C(=O)[C@H](Cc2cc(Cl)ccc2-c2ccc(N3CCO[C@@H](CN(C)C)C3)cc2)N(C)C1=O [Example 410] ({cBuCO(3,3-F2-1-CF3)}-[Pro(trans-4-F)][Gly(cPr)][NMehhhLys(Me)]L[X48]; lactam 3-C)	pIC50	6.19
CC(C)C[C@@H]1NC(=O)[C@@H](N(C)C(=O)[C@@H](NC(=O)[C@@H]2C[C@@H](F)CN2C(=O)[C@]2(C(F)(F)F)CCCCO2)C2CC2)CCCCCCCN(C)C(=O)[C@H](Cc2cc(F)ccc2-c2cnn(C3CC3)c2)N(C)C1=O [Example 146] (X27-[Pro(trans-4-F)][Gly(cPr)][NMehhhLys(Me)]L[X26]; lactam 3-C)	pIC50	7.00
CC(C)C[C@@H]1NC(=O)[C@@H](N(C)C(=O)[C@@H](NC(=O)[C@@H]2C[C@@H](F)CN2C(=O)C2(C(F)(F)F)CC(F)(F)C2)C2CC2)CC=CCCCCNC(=O)[C@H](Cc2cc(Cl)ccc2-c2cnn(C3CC3)c2)N(C)C1=O [Example 189]	pIC50	6.07
CC(C)C[C@@H]1NC(=O)[C@@H](N(C)C(=O)[C@@H](NC(=O)[C@@H]2C[C@@H](F)CN2C(=O)C2(C(F)(F)F)CC3(CCC3)C2)C2CC2)CC=CCCCCN(C)C(=O)[C@H](Cc2cc(Cl)ccc2Cl)N(C)C1=O [Example 15]	pIC50	5.98
CC(=O)N1CC=C(c2ccc(Cl)cc2C[C@H]2C(=O)NCCCCCCC[C@H](N(C)C(=O)[C@@H](NC(=O)[C@@H]3C[C@@H](F)CN3C(=O)C3(C(F)(F)F)CC(F)(F)C3)C3CC3)C(=O)N[C@@H](CC(C)C)C(=O)N2C)CC1 [Example 20] ({cBuCO(3,3-F2-1-CF3)}-[Pro(trans-4-F)][Gly(cPr)][NMe(hhhLys)]L[X90]; lactam 3-C)	pIC50	5.82
CC(C)C[C@@H]1NC(=O)[C@@H](N(C)C(=O)[C@@H](NC(=O)[C@@H]2C[C@@H](F)CN2C(=O)C2(C(F)(F)F)CC(F)(F)C2)C2CC2)CCCCCCCNC(=O)[C@H](Cc2cc(Cl)ccc2Oc2ncccn2)N(C)C1=O [Example 154] ({cBuCO(3,3-F2-1-CF3)}-[Pro(trans-4-F)][Gly(cPr)][NMe(hhhLys)]L[NMePhe(5-Cl,2-O(2-Pym))]; lactam 3-C)	pIC50	6.32
CC(C)C[C@@H]1NC(=O)[C@@H](N(C)C(=O)[C@@H](NC(=O)[C@@H]2C[C@@H](F)CN2C(=O)C2(C(F)(F)F)CC(F)(F)C2)C2CC2)CCCCCCCNC(=O)[C@H](Cc2cc(Cl)ccc2C2=C[C@H]3COC[C@@H](C2)N3C(=O)C(C)C)N(C)C1=O [Example 327] ({cBuCO(3,3-F2-1-CF3)}-[Pro(trans-4-F)][Gly(cPr)][NMe(hhhLys)]L[X10]; lactam 3-C)	pIC50	6.40
